- STUDY_TARGET: Human M4 (Homo sapiens, UniProt P08173)
- Construct: Human or rat M4 cDNA, along with the chimeric G protein Gqi5, were transfected into Chinese hamster ovary (CHO-K1) cells
- Sequence (P08173 1-479): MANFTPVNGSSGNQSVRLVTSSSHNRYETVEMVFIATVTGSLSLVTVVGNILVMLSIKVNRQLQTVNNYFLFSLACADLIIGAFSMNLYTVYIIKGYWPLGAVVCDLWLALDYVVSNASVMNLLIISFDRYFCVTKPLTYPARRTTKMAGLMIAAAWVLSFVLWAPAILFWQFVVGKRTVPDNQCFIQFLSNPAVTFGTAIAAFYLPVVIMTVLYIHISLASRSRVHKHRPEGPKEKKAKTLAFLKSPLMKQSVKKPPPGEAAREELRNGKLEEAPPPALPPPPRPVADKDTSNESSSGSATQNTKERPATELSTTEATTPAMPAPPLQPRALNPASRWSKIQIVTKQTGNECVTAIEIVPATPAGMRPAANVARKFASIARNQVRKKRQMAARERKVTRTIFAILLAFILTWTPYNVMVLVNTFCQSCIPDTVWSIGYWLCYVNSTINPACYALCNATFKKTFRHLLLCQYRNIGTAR
- ASSAY_PROCEDURE: mAChR M4 cell-based functional assay (calcium flux, decrease of EC80 acetylcholine response)
- TEST_SETTINGS: M4/Gqi5/CHO-K1 cells; decrease of response to EC80 acetylcholine
- Experimental: Human or rat M4 cDNA, along with the chimeric G protein Gqi5, were transfected into Chinese hamster ovary (CHO-K1) cells purchased from the American Type Culture Collection using Lipofectamine2000. […] Calcium flux was measured using the Functional Drug Screening System (FDSS) 6000 or 7000 (Hamamatsu Corporation, Tokyo, Japan) as an increase in the fluorescent static ratio. […] Agonist activity was analyzed as a concentration-dependent increase in calcium mobilization upon compound addition. […]
pIC50: −log10 of the molar value.
QUANTITY_KIND: pIC50

# example entries with known answers
| COMPOUND | pIC50 |
| --- | --- |
| COc1cc(C)c(-c2cc(C(F)(F)F)c(N[C@H]3C[C@@H]4CN(CC5CCOCC5)C[C@@H]4C3)nn2)cc1C | 6.94 |
| Fc1cc(F)c(-c2cc(C(F)(F)F)c(N[C@H]3C[C@@H]4CN(CC5CCOCC5)C[C@@H]4C3)nn2)cc1F | 6.63 |
| CN1Cc2cc(-c3cc(C(F)(F)F)c(N[C@H]4C[C@@H]5CN(CC6CCOCC6)C[C@@H]5C4)nn3)ccc2C1=O | 6.70 |
| Cc1ccc(F)cc1-c1cc(C(F)(F)F)c(N[C@H]2C[C@@H]3CN(C[C@@H]4CC5CCC4O5)C[C@@H]3C2)nn1 (stereo partly shown) | 8.15 |
| Cc1ccc(F)cc1-c1cc(C(F)(F)F)c(N[C@H]2C[C@@H]3CN(CC4CCCCO4)C[C@@H]3C2)nn1 (single isomer, unassigned) [Example 118] | 7.90 |
| FC(F)(F)c1cc(-c2ccc3c(c2)CCO3)nnc1N[C@H]1C[C@@H]2CN(CC3CCOCC3)C[C@@H]2C1 | 7.32 |
| Cc1ccc(F)cc1-c1cc(C(F)(F)F)c(N[C@H]2C[C@@H]3CN(C[C@H]4COCCO4)C[C@@H]3C2)nn1 | 8.57 |
| FC(F)(F)c1cc(-c2ccc3ncsc3c2)nnc1N[C@H]1C[C@@H]2CN(CC3CCOCC3)C[C@@H]2C1 | 8.05 |

[1] Cn1cnc2ccc(-c3cc(C(F)(F)F)c(N[C@H]4C[C@@H]5CN(CC6CCOCC6)C[C@@H]5C4)nn3)cc21
[2] Cc1c(-c2nnc(N(C)[C@H]3C[C@@H]4CN(CC5CCOCC5)C[C@@H]4C3)cc2C(F)(F)F)ccc2nn(C)cc12
Query :: Which is greater in pIC50, the first item 1 or the second item 2 ? Reply briefly: the label of your chosen item.
Result :: 1
(1: 7.03, 2: 5.44)
